These data points were gathered from patent US9428503B2.

Molecular target: mTOR (Homo sapiens (Human), UniProt P42345)
Test: Assay d) mTOR cellular potency assay (phospho-AKT Ser473 in MDA-MB-468 cells)
Details: MDA-MB-468 cells, phospho-AKT Ser473, 2 h; geometric mean where repeated; read-out: Assay d) mTOR Cell IC50
# reported IC50; entries follow
Measurement Kind: IC50

Molecule | Assay Value
CN(C)CCCOc1ccc(-c2cc3c(cc2F)ncc2c3n(C3COC3)c(=O)n2C)cn1 [Example 9] | > 21.3 µM
Cn1c(=O)n(C2CCCOC2)c2c3cc(-c4ccc(OCCCN5CCC5)nc4)ccc3ncc21 (stereo in doubt) [Example 60] | 1.36 µM
Cn1c(=O)n([C@H]2C[C@@H](O)C2)c2c3cc(-c4ccc(OCCCN5CCC5)nc4)ccc3ncc21 [Example 14] | 1.04 µM
CO[C@H]1C[C@@H](n2c(=O)n(C)c3cnc4cc(F)c(-c5ccc(OCCCN(C)C)nc5)cc4c32)C1 [Example 6] | > 16.9 µM
